The values you see were collected from the COVID Moonshot data (paper PMC7615835).

These molecules were tested on SARS-CoV-2 Main Protease (SARS-CoV-2); pIC50 is the recorded read-out.
pIC50: −log10 of the molar value.
Metric: pIC50

| Molecule | Metric | Bound operator | Numeric value |
| --- | --- | --- | --- |
| Clc1ccc2c(c1)C1(CCO2)CCN(c2cncc3ccccc23)C1 (stereo not drawn) | pIC50 | < | 4.00 |
| C[C@@H]1CC[C@@]2(OC1)O[C@H]1C[C@H]3[C@@H]4CC=C5C[C@@H](O)CC[C@]5(C)[C@H]4CC[C@]3(C)[C@]1(O)[C@@H]2C (stereo in doubt) | pIC50 | < | 4.00 |
| CNC(=O)CN1C[C@@H](C(=O)Nc2cncc3cccc(Cl)c23)c2cc(Cl)ccc2C1=O (stereo in doubt) | pIC50 | = | 4.84 |
| CNC(=O)CN1Cc2ccc(Cl)cc2C(C(=O)Nc2cncc3cc(NS(C)(=O)=O)ccc23)C1 (stereo not drawn) | pIC50 | = | 7.14 |
| O=C(Nc1cncc2[nH]c(=O)[nH]c12)C1CCOc2ccc(Cl)cc21 (stereo not drawn) | pIC50 | = | 4.20 |
| N#Cc1ccccc1NC(=O)[C@@H](c1ccccc1)N1Cc2ccccc2C1=O (stereo in doubt) | pIC50 | < | 4.00 |
| CN1CCN(S(=O)(=O)N2Cc3ccc(Cl)cc3C(C(=O)Nc3cncc4ccccc34)C2)CC1 (stereo not drawn) | pIC50 | = | 6.94 |
| CN(C)S(=O)(=O)NCC1(C(=O)Nc2cncc3ccccc23)CCOc2ccc(Cl)cc21 (stereo not drawn) | pIC50 | = | 5.56 |

====

target: UniProt:P0DTD1
pIC50: −log10 of the molar value.
The molecules listed here are annotated with their pIC50.

| Molecule | Bound operator | pIC50 |
| --- | --- | --- |
| Cc1ccc(Nc2cc(Cl)cc(CC(=O)Nc3cncc4ccccc34)c2)cc1Br | = | 5.68 |
| O=C(Cc1cccc(Cl)c1)Nc1cncc2nccnc12 | = | 4.12 |
| COC(=O)c1c(C)nn(C(=O)c2cccs2)c1-c1snnc1C | = | 5.24 |
| N#CC1(CS(=O)(=O)N2Cc3ccc(Cl)cc3C3(CCN(c4cncc5ccc(Cl)cc45)C3=O)C2)CC1 (configuration not stated) | = | 6.09 |
| COc1cc2cncc(NC(=O)Cc3cccc(Cl)c3)c2cc1F | < | 4.00 |
| C[n+]1ccn(CCCc2cccc(Cl)c2)c1C#N | < | 4.00 |
| O=C(Cn1nnc2ccccc21)N(Cc1cccc(Cl)c1)c1ccc(N2CCCCC2)cc1 | = | 5.44 |
| CC(Cn1ccnc1C#N)c1cccc(Cl)c1 (configuration not stated) | < | 4.00 |
| O=C(Cc1cc(Cl)cc(Nc2cccc(Br)c2)c1)Nc1cncc2ccccc12 | = | 5.68 |
| O=C(Cc1cccc(Cl)c1)Nn1cnc2ccccc21 | = | 5.08 |
| C[C@]1(C(=O)Nc2cncc3ccccc23)CCNc2cc(Cl)c(Cl)cc21 (stereo in doubt) | = | 4.01 |
| COc1cccc(CCNc2cc(Cl)cc(CC(=O)Nc3cncc4ccccc34)c2)c1 | = | 5.50 |
| O=C(Cn1nnc2ccccc21)N(Cc1cccc(Cl)c1)c1ccc(N2CCOCC2)cc1 | = | 5.43 |
| O=C(Nc1cncc2ccccc12)C1CN(C(=O)c2ncco2)Cc2ccc(Cl)cc21 (configuration not stated) | = | 6.04 |
| O=C(O)CN1C(=O)C(=O)c2cc([N+](=O)[O-])ccc21 | < | 4.00 |
| COc1cc(OC)cc(-c2nc(-c3c(C)nc4sccn34)no2)c1 | < | 4.00 |
| CC(C)(C)c1ccc(N(C(=O)c2nccs2)C(C(=O)NCCc2cccc(F)c2)c2cccnc2)cc1 (configuration not stated) | = | 6.10 |
| CC(C)(C)NC(=O)CN1CC(C(=O)Nc2cncc3cc(S(C)(=O)=O)ccc23)c2cc(Cl)ccc2C1=O (configuration not stated) | = | 6.61 |
| O=C(Cc1cc(Cl)cc(Nc2ncc(Br)c(C(F)(F)F)n2)c1)Nc1cncc2ccccc12 | = | 5.74 |
| COC1(c2cccc(Cl)c2)CCN(c2cncc3ccccc23)C1=O (configuration not stated) | = | 6.33 |
| O=C(Cc1cc(Cl)cc(Nc2ccncc2I)c1)Nc1cncc2ccccc12 | = | 5.77 |
| O=C(Cc1cc(Cl)cc(Nc2ccccc2Cc2ccccc2)c1)Nc1cncc2ccccc12 | = | 5.71 |
| Clc1cccc2c1OCCC2Nc1ncccn1 (configuration not stated) | < | 4.00 |
| O=C(Cc1cc(Cl)cc(Nc2ccc(Br)c(C(F)(F)F)c2)c1)Nc1cncc2ccccc12 | = | 5.64 |
| O=C(Cc1cccc(Cl)c1)Nc1cncc2oncc12 | = | 4.30 |
| CCOC(=O)CNC(=O)C(c1cccnc1)N(C(=O)c1cocn1)c1ccc(C(C)(C)C)cc1 (configuration not stated) | = | 5.02 |
| CN(Cc1cccc2ccccc12)c1cc(Cl)cc(CC(=O)Nc2cncc3ccccc23)c1 | = | 5.06 |
| CN(C)S(=O)(=O)N1CCc2ccc(Cl)cc2C1C(=O)Nc1cncc2ccccc12 (configuration not stated) | = | 5.71 |
| COc1ccc(N(C(=O)c2cocn2)C(C(=O)NCCc2cccc(F)c2)c2cccnc2)cc1 (configuration not stated) | = | 4.65 |
| O=C(Cc1cc(Cl)cc(Nc2cc(F)c(Br)c(F)c2)c1)Nc1cncc2ccccc12 | = | 5.69 |
| Cc1c(NC(=O)C2CCOc3ccc(Cl)cc32)cncc1N(C)C (configuration not stated) | < | 4.00 |
| O=C(Cc1cc(Cl)cc(Nc2cnc(Cl)c(Br)c2)c1)Nc1cncc2ccccc12 | = | 5.51 |
| C=CC(=O)NCc1ccccc1S(=O)(=O)NC | < | 4.00 |
| Cc1ccncc1NC(=O)Cc1cc(Cl)cc(-c2ccc(S(C)(=O)=O)cc2Cl)c1 | < | 4.00 |
| COc1ccc2c(NC(=O)Cc3cccc(Cl)c3)cncc2c1 | = | 5.06 |
| O=C(Cc1nnn2ccccc12)N(Cc1ccccc1)c1ccc(N2CCCCC2)cc1 | < | 4.00 |
| CC1(C(=O)Nc2cncc3cc(S(C)(=O)=O)ccc23)CN(CC(=O)NC2CC2)S(=O)(=O)c2ccc(Cl)cc21 (configuration not stated) | = | 6.33 |
| COc1ccc(C2CC(c3ccccc3)=NN2C(=O)CCl)cc1OC (configuration not stated) | = | 6.27 |
| O=C(Nc1cncc2ccccc12)[C@H]1CCNc2cc(Cl)c(Cl)cc21 (stereo in doubt) | < | 4.00 |
| O=C(c1cc(=O)[nH]c2ccccc12)N1CCN(c2ccc(F)cc2)CC1 | = | 4.78 |
| Cc1cccc(C2CN(C(=O)CCl)Cc3ccccc32)c1 (configuration not stated) | = | 5.70 |
| CS(=O)(=O)CC1(C(=O)Nc2cncc3ccccc23)CCOc2ccc(Cl)cc21 (configuration not stated) | = | 4.81 |

====

settings: rat; in vivo; po; 10.0 mg/kg
List of AUC(0-t) values.
Metric: AUC(0-t) (ng·h/mL)

| Compound | Metric | Numeric value |
| --- | --- | --- |
| O=C(Nc1cncc2ccccc12)C1CCS(=O)(=O)c2ccc(Cl)cc21 (configuration not stated) | AUC(0-t) | 14300 |
| O=C(Nc1cncc2ccccc12)[C@@H]1CCNc2cc(Cl)c(Cl)cc21 (stereo in doubt) | AUC(0-t) | 247 |

====

Let's go through some IC50 measurements on SARS-CoV-2 Main Protease (SARS-CoV-2) (UniProt P0DTD1) together.
Metric: IC50

| Compound | Result |
| --- | --- |
| CS(=O)(=O)c1ccc2c(NC(=O)C3CCS(=O)(=O)c4ccc(Cl)cc43)cncc2c1 (centres undefined) | 744 nM |
| Cc1ncc(CN2Cc3ccc(Cl)cc3C(C(=O)Nc3cncc4ccc(F)cc34)C2)[nH]1 (centres undefined) | 307 nM |
| CS(=O)(=O)c1ccc2c(NC(=O)C3CN(CC(=O)NCC(F)(F)F)C(=O)c4ccc(Cl)cc43)cncc2c1 (centres undefined) | 287 nM |
| C=CC(=O)N(Cc1ccccc1Cl)C(C(=O)NC(C)(C)C)c1cncc2ccccc12 (centres undefined) | > 99500 nM |
| O=C(Cc1cc(Cl)cc(Nc2ccc(Oc3ccccc3Cl)cc2)c1)Nc1cncc2ccccc12 | 2490 nM |
| C=CC(=O)N(c1ccc(C(C)(C)C)cc1)C(C(=O)NCCc1cccc(F)c1)c1cncc(Cl)c1 (centres undefined) | 11500 nM |
| NC(=O)CN1CCCN(C(=O)CCSc2ccc(F)cc2)CC1 | > 99500 nM |
| O=C(Nc1cncc2ccccc12)C1CCCc2ccc(Cl)cc21 (centres undefined) | 324 nM |
| CC(C)(C)c1ccc(N(C(=O)c2cc(O)cc(=O)o2)C(C(=O)NCCc2cccc(F)c2)c2cccnc2)cc1 (centres undefined) | > 99500 nM |
| O=C(Nc1cncc2cc(CN3CC4(CNC4)C3)ccc12)C1CCOc2ccc(Cl)cc21 (centres undefined) | 1440 nM |
| O=C(Nc1cnc2nccn2c1)c1cn2c(Br)cnc2s1 | > 99500 nM |
| CC(C)(C)c1ccc(N(C(=O)c2cn(CCN3CCOCC3)nn2)C(C(=O)NCCc2cccc(F)c2)c2cccnc2)cc1 (centres undefined) | 10500 nM |
| CS(=O)(=O)c1ccc2c(NC(=O)C34CC(C3)Oc3ccc(Cl)cc34)cncc2c1 | 22900 nM |
| CC1(CS(=O)(=O)N2Cc3ccc(Cl)cc3[C@@H](C(=O)Nc3cncc4ccccc34)C2)CC1 (stereo in doubt) | 4580 nM |
| COC(=O)c1cc(/C=c2\sc(=C(C#N)C#N)n(-c3cccc(C(F)(F)F)c3)c2=O)oc1C | > 99500 nM |
| Cc1ccncc1NC(=O)Cc1cccc(Br)c1 | 20600 nM |
| N#CC1CN(S(=O)(=O)N2Cc3ccc(Cl)cc3C3(CCN(c4cncc5ccccc45)C3=O)C2)C1 (centres undefined) | 181 nM |
| COCCN1CCc2ccc(Cl)cc2C1C(=O)Nc1cncc2ccccc12 (centres undefined) | 1880 nM |
| O=C(NCCc1ccccc1)[C@H]1CN(C(=O)CCl)CCN1S(=O)(=O)c1ccsc1 (stereo in doubt) | 2430 nM |
